All values here come from ChEMBL document CHEMBL4350992.

# experimental-target: NAD-dependent protein deacetylase sirtuin-2 (Homo sapiens) (UniProt Q8IXJ6)
# test-description: Inhibition of human N-terminal His-tagged SIRT2 expressed in Escherichia coli at 10 uM using p53 (Gln-Pro-Lys-Lys(Ac)) (317 to 320 residues) as substrate incubated for 3 hrs measured up to 30 mins by fluorescence assay relative to control
parameter: inhibition (%)
State just the number; it will be interpreted in %.

Some compounds with recorded inhibition:
O=C(NCc1ccccc1)c1ccccc1Nc1cccc(OCCc2ccccc2)c1
70
NC(=O)Cc1ccccc1Nc1cccc(OCCc2ccccc2)c1
68
O=C(Nc1ccccc1)c1ccccc1Nc1cccc(OCCc2ccccc2)c1
44

IN: Returns the measured inhibition for the input compound. Input: CC(C)(C)OC(=O)NCCCCCNC(=O)CNC(=O)c1ccccc1Nc1cccc(OCCc2ccccc2)c1
OUT: 83

IN: Same lookup for COC(=O)CNC(=O)c1ccccc1Nc1cccc(OCCc2ccccc2)c1 , please.
OUT: 72

IN: Same lookup for O=C(NCCO)c1ccccc1Nc1cccc(OCCc2ccccc2)c1 , please.
OUT: 76

IN: Same lookup for CCN(CC)C(=O)c1ccccc1Nc1cccc(OCCc2ccccc2)c1 , please.
OUT: 61

IN: Same lookup for O=C(NO)c1ccccc1Nc1cccc(OCCc2ccccc2)c1 , please.
OUT: 68

IN: Same lookup for CC(C)(C)OC(=O)NCCCCNC(=O)CNC(=O)c1ccccc1Nc1cccc(OCCc2ccccc2)c1 , please.
OUT: 83

IN: Same lookup for O=C(NC1CCCCC1)c1ccccc1Nc1cccc(OCCc2ccccc2)c1 , please.
OUT: 28

IN: Same lookup for O=C(O)c1ccccc1Nc1cccc(OCCc2ccccc2)c1 , please.
OUT: 12

* * *

# experimental-target: NAD-dependent protein deacetylase sirtuin-1 (Homo sapiens) (UniProt Q96EB6)
# Sequence (Q96EB6 whole entry, the tested form may be a part): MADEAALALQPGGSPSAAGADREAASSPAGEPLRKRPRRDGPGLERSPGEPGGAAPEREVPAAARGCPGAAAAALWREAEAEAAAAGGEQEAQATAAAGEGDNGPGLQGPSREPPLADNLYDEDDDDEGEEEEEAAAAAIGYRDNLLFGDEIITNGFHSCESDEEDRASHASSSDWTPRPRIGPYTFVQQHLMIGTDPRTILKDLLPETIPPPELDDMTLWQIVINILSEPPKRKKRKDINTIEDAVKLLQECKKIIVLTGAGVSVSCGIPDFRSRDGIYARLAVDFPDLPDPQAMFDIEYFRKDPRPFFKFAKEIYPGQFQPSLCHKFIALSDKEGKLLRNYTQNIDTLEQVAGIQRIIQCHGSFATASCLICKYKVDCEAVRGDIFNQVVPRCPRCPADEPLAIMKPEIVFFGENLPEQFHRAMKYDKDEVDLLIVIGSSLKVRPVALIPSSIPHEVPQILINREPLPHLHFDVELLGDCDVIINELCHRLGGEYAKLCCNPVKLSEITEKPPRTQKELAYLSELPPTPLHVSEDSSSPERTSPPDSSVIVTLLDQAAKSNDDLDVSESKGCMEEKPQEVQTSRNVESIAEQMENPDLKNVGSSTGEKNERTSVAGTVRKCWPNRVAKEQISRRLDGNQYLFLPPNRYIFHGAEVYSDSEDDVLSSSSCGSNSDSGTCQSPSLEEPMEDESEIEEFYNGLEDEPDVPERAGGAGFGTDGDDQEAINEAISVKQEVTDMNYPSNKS
# test-description: Inhibition of human N-terminal His-tagged SIRT1 expressed in Escherichia coli at 100 uM using p53 (Arg-His-Lys-Lys(Ac)) (379 to 382 residues) as substrate incubated for 3 hrs measured up to 30 mins by fluorescence assay relative to control
Documented inhibition across a set of molecules
Please report the result as a number followed by the unit.

Some molecules with recorded inhibition:
NC(=O)c1ccccc1Nc1cccc(OCCc2ccccc2)c1
17%
O=C(CNC(=O)c1ccccc1Nc1cccc(OCCc2ccccc2)c1)NCCCC[C@@H]1NC(=O)CNC1=O
13%

IN: Returns the measured inhibition for the input molecule. Input: Cc1cc(C)nc(SCC(=O)Nc2cccc(Nc3ccccc3C(N)=O)c2)n1
OUT: 28%

IN: Same lookup for C[C@H](NC(=O)[C@H](CCCCNC(=O)CNC(=O)c1ccccc1Nc1cccc(OCCc2ccccc2)c1)NC(=O)OCc1ccccc1)C(N)=O , please.
OUT: 51%

* * *

# experimental-target: NAD-dependent protein deacylase sirtuin-5, mitochondrial (Homo sapiens) (UniProt Q9NXA8)
# Sequence (Q9NXA8 37-310 limits assumed): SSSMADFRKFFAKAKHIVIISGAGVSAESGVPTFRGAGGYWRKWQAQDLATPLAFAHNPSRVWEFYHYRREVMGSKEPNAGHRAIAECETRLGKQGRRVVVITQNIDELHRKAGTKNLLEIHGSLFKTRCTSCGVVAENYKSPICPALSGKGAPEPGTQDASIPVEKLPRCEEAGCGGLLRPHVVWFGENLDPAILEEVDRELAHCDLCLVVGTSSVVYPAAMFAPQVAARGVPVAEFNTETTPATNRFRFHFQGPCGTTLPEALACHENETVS
# test-description: Inhibition of human N-terminal His-tagged SIRT5 (37 to 310 residues) expressed in Escherichia coli at 100 uM using flour de lys succinyl as substrate incubated for 3 hrs measured up to 30 mins by fluorescence assay relative to control
Lab note: compare inhibition against 8%. Equal or greater, write YES. Smaller, write NO.

These solved cases illustrate the format of a correct answer.
O=C1CNC(=O)[C@H](CCCCNC(=S)CNC(=O)c2ccccc2Nc2cccc(OCCc3ccccc3)c2)N1
NO
O=C(CNC(=O)c1ccccc1Nc1cccc(OCCc2ccccc2)c1)NCCCC[C@@H]1NC(=O)CNC1=O
NO
C[C@H](NC(=O)[C@H](CCCCNC(=O)CNC(=O)c1ccccc1Nc1cccc(OCCc2ccccc2)c1)NC(=O)OCc1ccccc1)C(N)=O
NO

Let's switch to this compound now.
IN: Has Cc1cc(C)nc(SCC(=O)Nc2cccc(Nc3ccccc3C(N)=O)c2)n1 a recorded inhibition greater than or equal to 8%?
OUT: YES

* * *

# experimental-target: NAD-dependent protein deacetylase sirtuin-2 (Homo sapiens)
# test-description: Inhibition of human N-terminal His-tagged SIRT2 expressed in Escherichia coli at 10 uM using p53 (Gln-Pro-Lys-Lys(Ac)) (317 to 320 residues) as substrate incubated for 3 hrs measured up to 30 mins by fluorescence assay relative to control
parameter: inhibition (%)
State just the number; it will be interpreted in %.

Some molecules with recorded inhibition:
NC(=O)c1ccccc1Nc1cccc(OCCc2ccc3ccccc3c2)c1
75
C[C@H](NC(=O)c1ccccc1Nc1cccc(OCCc2ccccc2)c1)C(N)=O
81
NC(=O)c1ccccc1Nc1cccc(OCCc2ccccc2)c1
90

IN: Returns the measured inhibition for the input molecule. Input: CONC(=O)c1ccccc1Nc1cccc(OCCc2ccccc2)c1
OUT: 63

IN: Same lookup for Cc1cc(C)nc(SCC(=O)Nc2cccc(Nc3ccccc3C(N)=O)c2)n1 , please.
OUT: 93

IN: Same lookup for CN(C)CCNC(=O)c1ccccc1Nc1cccc(OCCc2ccccc2)c1 , please.
OUT: 59

IN: Same lookup for NC(=O)CNC(=O)c1ccccc1Nc1cccc(OCCc2ccccc2)c1 , please.
OUT: 85

IN: Same lookup for O=C(NC1CCN(Cc2ccccc2)CC1)c1ccccc1Nc1cccc(OCCc2ccccc2)c1 , please.
OUT: 56

IN: Same lookup for O=C(O)CNC(=O)c1ccccc1Nc1cccc(OCCc2ccccc2)c1 , please.
OUT: 50

IN: Same lookup for CCCCCNC(=O)c1ccccc1Nc1cccc(OCCc2ccccc2)c1 , please.
OUT: 50

IN: Same lookup for C#CCNC(=O)c1ccccc1Nc1cccc(OCCc2ccccc2)c1 , please.
OUT: 77

* * *

# experimental-target: NAD-dependent protein deacetylase sirtuin-1 (Homo sapiens) (UniProt Q96EB6)
# test-description: Inhibition of human N-terminal His-tagged SIRT1 expressed in Escherichia coli at 50 uM using p53 (Arg-His-Lys-Lys(Ac)) (379 to 382 residues) as substrate incubated for 3 hrs measured up to 30 mins by fluorescence assay relative to control
Documented inhibition across a set of compounds
Please report the result as a number followed by the unit.

CCN(CC)C(=O)c1ccccc1Nc1cccc(OCCc2ccccc2)c1
11%
O=C(O)CNC(=O)c1ccccc1Nc1cccc(OCCc2ccccc2)c1
8%
Cc1cc(C)nc(SCC(=O)Oc2cccc(Nc3ccccc3C(N)=O)c2)n1
7%
NC(=O)Cc1ccccc1Nc1cccc(OCCc2ccccc2)c1
19%
O=C(NCCc1ccccc1)c1ccccc1Nc1cccc(OCCc2ccccc2)c1
5%
C[C@H](NC(=O)c1ccccc1Nc1cccc(OCCc2ccccc2)c1)C(N)=O
15%
O=C(NCCO)c1ccccc1Nc1cccc(OCCc2ccccc2)c1
12%
O=C1CNC(=O)[C@H](CCCCNC(=S)CNC(=O)c2ccccc2Nc2cccc(OCCc3ccccc3)c2)N1
41%
CC(C)(C)OC(=O)NCCCCNC(=O)CNC(=O)c1ccccc1Nc1cccc(OCCc2ccccc2)c1
23%
CC(C)(C)OC(=O)NCCNC(=O)c1ccccc1Nc1cccc(OCCc2ccccc2)c1
11%

IN: Returns the measured inhibition for the input compound. Input: O=C(c1ccccc1Nc1cccc(OCCc2ccccc2)c1)N1CCOCC1
OUT: 4%

IN: Same lookup for CC(C)(C)OC(=O)NCCCNC(=O)c1ccccc1Nc1cccc(OCCc2ccccc2)c1 , please.
OUT: 4%

IN: Same lookup for NC(=O)CNC(=O)c1ccccc1Nc1cccc(OCCc2ccccc2)c1 , please.
OUT: 10%

IN: Same lookup for NC(=O)c1ccccc1Nc1cccc(OCCc2ccccc2)c1 , please.
OUT: 12%

IN: Same lookup for O=C(NOC1CCCCO1)c1ccccc1Nc1cccc(OCCc2ccccc2)c1 (configuration not stated) , please.
OUT: 8%

* * *

# experimental-target: NAD-dependent protein deacetylase sirtuin-2 (Homo sapiens) (UniProt Q8IXJ6)
# Sequence (whole entry): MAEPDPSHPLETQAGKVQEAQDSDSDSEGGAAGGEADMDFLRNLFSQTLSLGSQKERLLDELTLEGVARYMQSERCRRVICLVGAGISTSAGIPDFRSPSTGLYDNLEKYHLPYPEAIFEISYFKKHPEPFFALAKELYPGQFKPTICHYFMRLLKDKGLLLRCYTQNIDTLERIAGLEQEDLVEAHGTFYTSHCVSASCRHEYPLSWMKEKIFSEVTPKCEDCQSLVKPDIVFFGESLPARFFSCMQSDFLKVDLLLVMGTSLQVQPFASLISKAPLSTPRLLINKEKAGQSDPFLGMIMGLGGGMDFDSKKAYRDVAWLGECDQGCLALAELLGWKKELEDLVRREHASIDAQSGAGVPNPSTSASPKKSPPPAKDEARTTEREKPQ
# test-description: Inhibition of human N-terminal His-tagged SIRT2 expressed in Escherichia coli at 10 uM using p53 (Gln-Pro-Lys-Lys(Ac)) (317 to 320 residues) as substrate incubated for 3 hrs measured up to 30 mins by fluorescence assay relative to control
Lab note: compare inhibition against 60%. Equal or greater, write Yes. Smaller, write No.

CC(C)(C)OC(=O)NCCCNC(=O)c1ccccc1Nc1cccc(OCCc2ccccc2)c1
No
O=C(CNC(=O)c1ccccc1Nc1cccc(OCCc2ccccc2)c1)NCCCC[C@@H]1NC(=O)CNC1=O
Yes
CC(C)(C)OC(=O)NCCNC(=O)c1ccccc1Nc1cccc(OCCc2ccccc2)c1
Yes
O=C(NOC1CCCCO1)c1ccccc1Nc1cccc(OCCc2ccccc2)c1 (stereo not given)
No
O=C(NCCc1ccccc1)c1ccccc1Nc1cccc(OCCc2ccccc2)c1
No

IN: Has CCCNC(=O)c1ccccc1Nc1cccc(OCCc2ccccc2)c1 a recorded inhibition greater than or equal to 60%?
OUT: No

IN: Same lookup for Cc1cc(C)nc(SCC(=O)Oc2cccc(Nc3ccccc3C(N)=O)c2)n1 , please.
OUT: No

IN: Same lookup for CCCCNC(=O)c1ccccc1Nc1cccc(OCCc2ccccc2)c1 , please.
OUT: No

IN: Same lookup for CC(C)CCNC(=O)c1ccccc1Nc1cccc(OCCc2ccccc2)c1 , please.
OUT: No

IN: Same lookup for O=C(c1ccccc1Nc1cccc(OCCc2ccccc2)c1)N1CCOCC1 , please.
OUT: Yes
